B1: tRNA (parent)
chain: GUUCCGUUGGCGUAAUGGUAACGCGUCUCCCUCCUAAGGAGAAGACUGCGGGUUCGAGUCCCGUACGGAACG

Variants of: B1
PROTOCOL_SUMMARY: yeast fitness relative to wild type (ratio to wild type); higher = fitter; tRNA-Arg(CCU), competitive growth, 37 C, YPD
Fewer inactive variants are shown than the library holds.
MEASURE_NAME: yeast fitness

QUERY: Given the variant GUUCAGUUGGCGUAAUGGUAAUGCGUCUCCCUCCUAAGGAGAAGACUGAGGGUUCGAGUCCUGUACGGAACG [C5A C22U C49A C62U] , what is its reported yeast fitness?
RESULT: ≤ 0.5

QUERY: Subsequent entry: GUUCCGUUGGCGUAAUGCUAACGGGUCUCCCUCCCAAGGAGAAGACUGCCGGUUGGAGUCCCGUACCGAACG [G18C C24G U35C G50C C55G G67C]
RESULT: ≤ 0.5

QUERY: Subsequent entry: GUUCCGUUGGCGUAAUGGUAACGCGUCUCACUCCUAAGAAGAAGACUGCGGGUUCGAGUCCCGUACGGAACG [C30A G39A]
RESULT: 0.833

QUERY: Subsequent entry: GUUCCGUUGGCGUAAAGGUAACGCGUCUCCCUCUUAAGGAGAAGACUGCGGGUUCGAGUCCCGUACGGAUCG [U16A C34U A70U]
RESULT: ≤ 0.5

QUERY: Subsequent entry: GUUCCGUUGGCGUAACGGUAACGCGUCUCCCUCGUAAGGAGAAGACUGCGAGUUCGAGUCCCGUACGGAACG [U16C C34G G51A]
RESULT: 0.534
